Below, each of the compounds is paired with its reported GI50 value.
test system: RXF 631; experiment: NCI tumour cell line growth inhibition, 48 h
The source made the active and inactive calls. No stated cut-off is given here; in the data, active = GI50 up to about 1.1 µM and inactive = higher.
endpoint.label: GI50

In [3]: df
Out[3]:
                                   compound               result
0        COc1cccc2cc(C)c(C(=O)c3ccccc3)nc12  > 100 µM (inactive)
1  O=C1CC2C(=O)N(Cc3ccccc3)C1C(S(=O)(=O)c1ccccc1)C2S(=O)(=O)c1ccccc1 (centres undefined)   12.5 µM (inactive)
2  CCCCCCC(=O)OC[n+]1ccc2c(C)c3[nH]c4ccccc4c3c(C)c2c1   2.54 µM (inactive)
3                  CCOC(=O)CC1=Nc2ccccc2SC1  > 100 µM (inactive)
4  CCOC(=O)C1Nc2ccc([N+](=O)[O-])cc2[C@H]2OCC[C@@H]12 (some centres undefined)  > 100 µM (inactive)
5  CC(=O)O/C=C(/C=C/OC(C)=O)C(C/C=C(\C)C#CC=C(C)C)OC(C)=O (centres undefined)  > 100 µM (inactive)
6  CC1(Cl)C(=O)NC(=O)N([C@H]2C[C@H](O)[C@@H](CO)O2)C1N=[N+]=[N-] (some centres undefined)  > 100 µM (inactive)
7  COc1cccc(N2C(=O)[C@H]3[C@H]4CC(C(C)(C)C)CC[C@H]4c4c([nH]c5ccccc45)[C@H]3C2=O)c1 (some centres undefined)   17.6 µM (inactive)
8  C/C(CN1C(=O)c2ccccc2C1=O)=N\NS(=O)(=O)c1ccc(Cl)cc1  > 100 µM (inactive)

###

tested on: RXF 393; assay: NCI tumour cell line growth inhibition, 48 h
Activity calls are given as the source filed them. No stated cut-off is given here; in the data, active = GI50 up to about 1.1 µM and inactive = higher.
Outcomes: active, inactive

compound	experimental.system	class.assignment
N#CC1(C#N)C2C=CC(C3CC=CC32)C1(C#N)C#N (stereo not given)	RXF 393	inactive
O=C1OC(c2cccc(C(F)(F)F)c2)(c2cccc(C(F)(F)F)c2)c2ccc3ccccc3c21	RXF 393	inactive
Cc1cc2nc3ccccc3n2c2nc(N)ccc12	RXF 393	inactive
CC12NC(=C(C#N)C#N)C(C#N)=C3NC(N)=C(C#N)C(=C31)Oc1ccccc12 (stereo not given)	RXF 393	inactive
CC1CCC2(OCCO2)[C@]2(C)CC(O)C(=O)C=C12 (stereo not given in full)	RXF 393	inactive
CC(NC1=NCCO1)c1ccco1 (stereo not given)	RXF 393	inactive
O=C(CC1=Nc2nnc(CCCCCCCc3nnc4n3C(=O)C(CC(=O)c3ccc5ccccc5c3)=N4)n2C1=O)c1ccc2ccccc2c1	RXF 393	inactive
CC(=O)NC1CC2Oc3ccc(C)cc3C(C)(O2)C1O (stereo not given)	RXF 393	inactive
O=C1[C@H]2ON(c3ccccc3)C(c3ccccc3)[C@H]2C(=O)N1c1ccc(Cc2ccc(N3C(=O)[C@@H]4ON(c5ccccc5)C(c5ccccc5)[C@@H]4C3=O)cc2)cc1 (stereo not given in full)	RXF 393	inactive
CN1CCC2(CC1)/C(=N/C1CCCCC1)NC(=S)N2c1ccccc1	RXF 393	inactive
C=C(Br)C(C)(Cl)CCC(Br)C(C)(C)Cl (stereo not given)	RXF 393	inactive
COC(=O)/C(C#N)=C1\CCC(Nc2cccc(C(F)(F)F)c2)N1C (stereo not given)	RXF 393	inactive
C/C(=N\NC(=O)c1ccncc1)c1ccc2ccccc2c1O	RXF 393	inactive
O=C(C/C=C/c1ccccc1)c1ccccc1	RXF 393	inactive
O=C1/C(=c2\c3ccccc3n3c(=O)c4ccccc4nc23)Nc2ccccc21 [CANDIDINE]	RXF 393	inactive
CCN1CCC(O)(c2ccc(Oc3ccc(C)cc3)cc2)C(C(=O)c2ccc(Oc3ccc(C)cc3)cc2)C1 (stereo not given)	RXF 393	inactive
CCc1[nH]c(=O)c2oc3cc4ccccc4cc3c2c1C(=O)O	RXF 393	inactive
CC(C)CC(=O)NC(Nc1ccc(S(=O)(=O)Nc2ncccn2)cc1)(C(F)(F)F)C(F)(F)F	RXF 393	inactive
Brc1nc2c3ccccc3ncn2c1Br	RXF 393	inactive
O=S(=O)(O)c1cc(O)c(/N=N/c2ccc3ccccc3c2O)c2ccccc12 [ERIOCHROME BLUE BLACK B]	RXF 393	inactive
C[C@]12CC[C@H]3[C@@H](CCC4=C(Br)C(=O)C=C[C@@]43O)[C@@H]1CCC2=O	RXF 393	inactive
COc1cccc(C2c3cc4c(cc3OC(NNC(N)=O)C2C)OCO4)c1O (stereo not given)	RXF 393	active
Nc1nc(O)c2ncn(C3OC(CO)C(O)C3O)c2n1 (stereo not given)	RXF 393	inactive
NC1=NS(=O)(=O)Nc2nc(-c3ccc([N+](=O)[O-])cc3)[nH]c21	RXF 393	inactive
CCN(CC(=O)O)C(=O)c1cccnc1	RXF 393	inactive
COc1cccc2cc(C)c(C(=O)c3ccccc3)nc12	RXF 393	inactive
COc1cccc(N2C(=O)[C@H]3[C@H]4CC(C(C)(C)C)CC[C@H]4c4c([nH]c5ccccc45)[C@H]3C2=O)c1 (stereo not given in full)	RXF 393	inactive
CCOC(=O)C1Nc2ccc([N+](=O)[O-])cc2[C@H]2OCC[C@@H]12 (stereo not given in full)	RXF 393	inactive
Cn1nc2ccc3nccc(N(CCO)CCO)c3c2n1	RXF 393	inactive
COc1cc2c(cc1OC)C(=O)/C(=C/c1ccc(N(C)C)cc1)CC2	RXF 393	inactive
COC(=O)C1C2C=CC(C2)C1(C(=O)OC)[S+]([O-])CC12CCC(CC1O)C2(C)C (stereo not given)	RXF 393	inactive
SC1=C2CCCCCC2=NC2(CCCCCC2)S1	RXF 393	inactive
COc1ccc(CSC2=C(C#N)C(=O)NC3(CCCCC3)S2)cc1	RXF 393	inactive
C/C(=N\NC(=S)N1CC2CCC(CC2)C1)c1cccc(C)n1	RXF 393	inactive
Cc1cc(O)c2c(c1)C(=O)c1c(c(O)cc(O)c1-c1c(O)cc(O)c3c1C(=O)c1cc(C)cc(O)c1C3=O)C2=O [SKYRIN]	RXF 393	inactive
Cc1ccc(/C(=C\C(=O)C(=O)NC23CC4CC(CC(C4)C2)C3)Sc2ccccc2)cc1	RXF 393	inactive
CC1=NNC(=O)C1C1CC(c2c[nH]c3ccccc23)=NNC1=S (stereo not given)	RXF 393	inactive
O=C(O)c1cc(Sc2ccc([N+](=O)[O-])c(C(=O)O)c2)ccc1[N+](=O)[O-]	RXF 393	inactive
CCCCCCC(=O)OC[n+]1ccc2c(C)c3[nH]c4ccccc4c3c(C)c2c1	RXF 393	active
Cc1ccc(S(=O)(=O)N/N=C\c2c3ccccc3[n+](C)c3ccccc23)cc1	RXF 393	inactive

###

system: A549; assay: NCI tumour cell line growth inhibition, 48 h
The source made the active and inactive calls. Rule as the data show it: active = GI50 up to about 1.1 µM and inactive = higher. Non-standard residues stand in square brackets, D forms with d. Residues, ends and D or L forms follow the SMILES beside them. *: point of attachment. X30 = COC1=CC(=O)N(C(=O)[C@@H](O*)C(C)C)[C@H]1Cc1ccccc1; NMeL = CN[C@@H](CC(C)C)C(=O)O; Cbz = O=C(OCc1ccccc1)*
Outcomes: Y (active), N (inactive)

compound	class.assignment
CCCCSC1=N/C(=C\c2ccc(N(C)C)cc2)C(NN)=N1	N
O=S(=O)(N/N=C/c1ccc(Cl)c(Cl)c1)c1ccccc1	N
CCOC(=O)CNC(=O)C(C)NC(=O)C(NC(=O)CC(c1ncc[nH]1)c1ncc[nH]1)C(C)CC (stereo not drawn)	N
Cc1cccc(C)c1NC(=O)CCC(=O)NNC(=O)c1cc(O)c2ccccc2c1	N
Cc1c(N(C)C)ccc2c(=O)c3cccc(CC(=O)O)c3oc12	N
COc1c(C)cc2c(c1O)C1C3[C@H]4SC[C@@]5(NCCC6=C5NC5C=CC=CC65)C(=O)OCC(c5c6c(c(C)c(OC(C)=O)c54)OCO6)N3[C@@H](O)C(C2)N1C (stereo partly drawn)	Y
N=C(N)SCCc1ccncc1	N
COC1=CC(=O)N(C(=O)[C@@H](OC(=O)[C@@H]2CCCN2C(=O)[C@@H]2CCCN2C(=O)[C@H](CC(C)C)N(C)C(=O)[C@@H](NC(=O)[C@@H](NC(=O)OCc2ccccc2)C(C)C)C(C)C)C(C)C)[C@H]1Cc1ccccc1 (Cbz-VV[NMeL]PP-X30)	N

###

test system: UO-31; experiment: NCI tumour cell line growth inhibition, 48 h
The source made the active and inactive calls. No stated cut-off is given here; in the data, active = GI50 up to about 1.1 µM and inactive = higher.
Below, each of the molecules is paired with its reported GI50 value.
endpoint.label: GI50

                                   molecule  experimental_system  endpoint_label               result
0  O=C(O/N=C1/CCCC/C1=C\c1ccccc1)c1ccc(Cl)cc1                UO-31            GI50  > 100 µM (inactive)
1                      c1cnc2nc3n(c2c1)CSC3                UO-31            GI50  > 100 µM (inactive)
2  O=S(OC12CC3CC(CC(C3)C1)C2)c1cc(Cl)cc(Cl)c1OCc1ccccc1 (stereo not given)                UO-31            GI50  > 100 µM (inactive)
3  Cc1ccc(S(=O)(=O)N/N=C2\C(=O)Nc3cc(O)c(C(=O)O)cc32)cc1                UO-31            GI50  > 100 µM (inactive)
4  CCn1c(=O)c2c3cc(OC(C)=O)ccc3oc2c2ccc(OC(C)=O)cc21                UO-31            GI50   26.6 µM (inactive)
5  COC(=O)c1c2c(cc3c1CC1(Cc4cc5c(c(C=O)c4C1)CCC5)C3)CCC2 (stereo not given)                UO-31            GI50   25.1 µM (inactive)
6  CCN(CC)CCC(=O)Nc1ccc2c(c1)C(=O)c1ccc(NC(=O)CCN(CC)CC)cc1C2=O                UO-31            GI50   84.1 µM (inactive)
7  O/N=C1\Nc2ccccc2OCc2cc(Br)c(Br)cc2COc2ccccc2N\C1=N/O                UO-31            GI50   19.1 µM (inactive)
8           Clc1ccccc1C(Nc1ncccn1)Nc1ncccn1                UO-31            GI50  > 100 µM (inactive)
9  CCOC(=O)Nc1ccc(S(=O)(=O)I)cc1.CCOC(=O)Nc1ccc(S(=O)(=O)I)cc1.CN(C=O)C1=C(N(C)C=O)C(N(C)C=O)=C(N(C)C=O)C(=O)C1=O                UO-31            GI50  > 100 µM (inactive)
